Target or test system: T1, purified recombinant ADIPOR1 (A88) (UniProt Q96A54 89-375)
T1 construct: range 89-375; Expressed in SF9 cells by baculovirus, solubilised in DDM, purified on anti-Flag beads (eluted with Flag peptide) and by size exclusion as monomer; amine-coupled to a CM5 chip; also called adiponectin receptor 1; adiponectin receptor ADIPOR1; not shown: Flag tag at the N-terminus
T1 sequence: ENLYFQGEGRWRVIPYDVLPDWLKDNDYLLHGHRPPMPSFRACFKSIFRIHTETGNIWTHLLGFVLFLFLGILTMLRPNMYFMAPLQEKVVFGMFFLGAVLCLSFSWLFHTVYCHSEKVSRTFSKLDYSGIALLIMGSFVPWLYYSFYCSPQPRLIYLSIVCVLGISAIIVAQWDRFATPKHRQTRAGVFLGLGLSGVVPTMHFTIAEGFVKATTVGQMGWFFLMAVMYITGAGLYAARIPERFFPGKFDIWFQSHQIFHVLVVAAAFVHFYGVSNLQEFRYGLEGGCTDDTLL
Protocol details: SPR; recombinant ADIPOR1 amine-coupled to a CM5 chip, peptide injected
Experimental: In order to analyze the binding force between peptide and ADIPOR1, a purified recombinant ADIPOR1 (A88) was bound to a CM5 chip with 3000 RU or higher through amine coupling. […] The affinity value was calculated using the affinity fitting or kinetics fitting method. […] The peptide concentrations were calculated by measuring the […] and A280 absorbance of each peptide.
For each of the binders below, state its pKd.
Note on units: pKd is unitless, being -log10 of a concentration expressed in mol/L.

// field: pKd; key: NIPGLFYFAY (3rd round synthetic peptide; also called peptide 3-4) [3-4] ; value = 4.63

// field: pKd; key: NIPGLWYFAY (3rd round synthetic peptide; also called peptide 3-3) [3-3] ; value = 4.51
